Catalogue of IC50 readings, one per entry.
Test system: CQ-resistant P. falciparum FcB1/Colombia strain
measurement-notes: In vitro growth inhibition of P. falciparum ([3H]-hypoxanthine incorporation)
Format: cell-based, Plasmodium falciparum
experimental-setup: CQ-resistant P. falciparum FcB1/Colombia strain; mean ± SD of four independent experiments; read-out: IC50
quantity-kind: IC50 (µM)

[
  {
    "compound": "CCOP(=O)(CCCN(O)C(C)=O)OCC [Compound 17]",
    "quantity-kind": "IC50",
    "relational-operator": ">",
    "quantitative-readout": 100
  },
  {
    "compound": "CCOP(=O)(CCCNc1ccccc1N)OCC [Compound 34]",
    "quantity-kind": "IC50",
    "relational-operator": "=",
    "quantitative-readout": 8.2
  }
]

###

Tested on: CQ-resistant P. falciparum FcB1/Colombia strain
measurement-notes: In vitro growth inhibition of P. falciparum ([3H]-hypoxanthine incorporation)
Format: cell-based, Plasmodium falciparum
experimental-setup: Plasmodium falciparum, FCB1
// assign condition met if IC50 falls strictly below 40 µM, else condition not met (ties count as condition not met)

[
  {
    "compound": "CCOP(=O)(CCCN(O)C(=O)CCC(=O)NNC(=O)OC(C)(C)C)OCC",
    "group": "condition not met"
  },
  {
    "compound": "CCOP(=O)(CCCN(O)C(=O)CCC(=O)N1CCNCC1)OCC",
    "group": "condition not met"
  },
  {
    "compound": "CCOP(=O)(CCCN(O)C(=O)CCC(=O)NCc1ccccc1)OCC",
    "group": "condition not met"
  },
  {
    "compound": "CCN(CC)CCCC(C)Nc1ccnc2cc(Cl)ccc12 (stereo not drawn) [CQ, Chloroquine, reference compound]",
    "group": "condition met"
  },
  {
    "compound": "CCOP(=O)(CCCN(O)C(=O)CCC(=O)N1CCN(c2ccnc3cc(Cl)ccc23)CC1)OCC",
    "group": "condition met"
  },
  {
    "compound": "CCOP(=O)(CCCN(O)C(=O)CCC(=O)NC(c1ccccc1)c1ccccc1)OCC",
    "group": "condition not met"
  },
  {
    "compound": "Nc1ccccc1NCCCP(=O)(O)O",
    "group": "condition not met"
  },
  {
    "compound": "CCOP(=O)(CCCN(O)C(=O)CCC(=O)Nc1ccccc1N)OCC",
    "group": "condition not met"
  },
  {
    "compound": "CC(=O)N(O)CCCP(=O)(O)O [FR900098, reference compound]",
    "group": "condition met"
  },
  {
    "compound": "CCOP(=O)(CCCN(O)C(=O)CCC(=O)N(Cc1ccccc1)Cc1ccccc1)OCC",
    "group": "condition met"
  },
  {
    "compound": "CCOP(=O)(CCCN(O)C(=O)CC[C@H]1O[C@@H]2O[C@]3(C)CC[C@H]4[C@H](C)CC[C@@H]([C@H]1C)C24OO3)OCC",
    "group": "condition met"
  },
  {
    "compound": "CCOP(=O)(CCCN(O)C(=O)CCC(=O)N1CCN(C)CC1)OCC",
    "group": "condition not met"
  },
  {
    "compound": "CCOP(=O)(CCCN(O)C(=O)CCC(=O)NCCNc1ccnc2cc(Cl)ccc12)OCC.O=C(O)C(F)(F)F",
    "group": "condition met"
  },
  {
    "compound": "CCOP(=O)(CCCN(O)C(=O)CCC(=O)Nc1ccc(Cc2ccc(NC(=O)OC(C)(C)C)cc2)cc1)OCC",
    "group": "condition met"
  },
  {
    "compound": "CCOP(=O)(CCCN(O)C(=O)CCC(=O)N(O)CCCP(=O)(OCC)OCC)OCC",
    "group": "condition not met"
  }
]

###

Test system: CQ-resistant P. falciparum FcB1/Colombia strain
measurement-notes: In vitro growth inhibition of P. falciparum ([3H]-hypoxanthine incorporation)
Type: cell-based, Plasmodium falciparum
experimental-setup: Plasmodium falciparum; CQ-resistant P. falciparum FcB1/Colombia strain; control drugs, unit (nM); read-out: IC50

[
  {
    "compound": "C[C@@H]1CC[C@H]2[C@@H](C)C(=O)O[C@@H]3O[C@@]4(C)CC[C@@H]1[C@]32OO4 [ART, artemisinin, reference compound]",
    "system": "CQ-resistant P. falciparum FcB1/Colombia strain",
    "IC50 [nM]": 55
  }
]
